Every entry's value here was drawn from paper PMC8445441.

# Test system: clinical P. aeruginosa isolates
# procedure summary: microbe, parasite or virus in culture
# recorded conditions: Pseudomonas aeruginosa, 18 h, read-out: Antibiotic sensibility (MIC) of clinical P. aeruginosa isolate AUMC-Pa-3, strain AUMC-Pa-3; antibiotic alone
Lab note: anything with MIC below 20 µM is marked fulfilled; values at 20 µM or higher are marked not fulfilled.

Completed entries (count: 5):
INSERT INTO results (compound, tested_target, cat) VALUES
  ('COc1cc(Cc2cnc(N)nc2N)cc(OC)c1OC', 'clinical P. aeruginosa isolates', 'not fulfilled'),
  ('CC[C@H]1OC(=O)[C@H](C)[C@@H](O[C@H]2C[C@@](C)(OC)[C@@H](O)[C@H](C)O2)[C@H](C)[C@@H](O[C@@H]2O[C@H](C)C[C@H](N(C)C)[C@H]2O)[C@](C)(OC)C[C@@H](C)C(=O)[C@H](C)[C@@H](O)[C@]1(C)O', 'clinical P. aeruginosa isolates', 'not fulfilled'),
  ('CO[C@H]1/C=C/O[C@@]2(C)Oc3c(C)c(O)c4c(c3C2=O)C2=NC3(CCN(CC(C)C)CC3)NC2=C(NC(=O)/C(C)=C\C=C\[C@H](C)[C@H](O)[C@@H](C)[C@@H](O)[C@@H](C)[C@H](OC(C)=O)[C@@H]1C)C4=O', 'clinical P. aeruginosa isolates', 'fulfilled'),
  ('O=C(N[C@H](CO)[C@H](O)c1ccc([N+](=O)[O-])cc1)C(Cl)Cl', 'clinical P. aeruginosa isolates', 'not fulfilled'),
  ('CN(C)c1cc(NC(=O)CNC(C)(C)C)c(O)c2c1C[C@H]1C[C@H]3[C@H](N(C)C)C(O)=C(C(N)=O)C(=O)[C@@]3(O)C(O)=C1C2=O', 'clinical P. aeruginosa isolates', 'fulfilled');

Prompt: Confirm or reject: MIC of CC[C@H]1OC(=O)[C@H](C)C(=O)[C@H](C)[C@@H](O[C@@H]2O[C@H](C)C[C@H](N(C)C)[C@H]2O)[C@](C)(OC)C[C@@H](C)C(=O)[C@H](C)[C@H]2N(CCCCn3cnc(-c4cccnc4)c3)C(=O)O[C@]12C lies strictly below 20 µM
Response: not fulfilled

Prompt: Confirm or reject: MIC of CCn1cc(C(=O)O)c(=O)c2ccc(C)nc21 lies strictly below 20 µM
Response: not fulfilled

Prompt: Confirm or reject: MIC of C[C@H]1COc2c(N3CCN(C)CC3)c(F)cc3c(=O)c(C(=O)O)cn1c23 lies strictly below 20 µM
Response: fulfilled

Prompt: Confirm or reject: MIC of CO[C@H]1/C=C/O[C@@]2(C)Oc3c(C)c(O)c4c(O)c(c(/C=N/N5CCN(C)CC5)c(O)c4c3C2=O)NC(=O)/C(C)=C\C=C\[C@H](C)[C@H](O)[C@@H](C)[C@@H](O)[C@@H](C)[C@H](OC(C)=O)[C@@H]1C lies strictly below 20 µM
Response: fulfilled

Prompt: Confirm or reject: MIC of CC1(C)S[C@@H]2[C@H](NC(=O)C(C(=O)O)c3ccccc3)C(=O)N2[C@H]1C(=O)O (stereo partly shown) lies strictly below 20 µM
Response: not fulfilled

Prompt: Confirm or reject: MIC of CC1(C)S[C@@H]2[C@H](NC(=O)[C@H](N)c3ccccc3)C(=O)N2[C@H]1C(=O)O lies strictly below 20 µM
Response: not fulfilled

Prompt: Confirm or reject: MIC of CC(=O)NC[C@H]1CN(c2ccc(N3CCOCC3)c(F)c2)C(=O)O1 lies strictly below 20 µM
Response: not fulfilled

Prompt: Confirm or reject: MIC of C[C@H]1[C@H](NC(=O)/C(=N\OC(C)(C)C(=O)O)c2csc(N)n2)C(=O)N1S(=O)(=O)O lies strictly below 20 µM
Response: fulfilled
